# System: IGROV1 ovarian
# Method Summary: NCI tumour cell line growth inhibition, 48 h; in the data active = GI50 below about 0.43 µM; inactive = the rest
Valid outcomes are listed here; reply with one: active, inactive

query: Given `COc1cc2nc(-c3ccc(C(F)(F)F)cc3)cc(OCCCN3CCCC3)c2cc1OC` , state the outcome it received in this test.
result: inactive

query: Now consider `c1cnn2ncc(-c3ccnc(Nc4ccc5c(c4)OCCO5)n3)c2c1` and answer again.
result: active

====

# Tested on: TK-10 renal
# Method Summary: NCI tumour cell line growth inhibition, 48 h
Readout Kind: TGI

A selection of reference data follows.
>>> data_value("CCN(CC)c1ccc(/C=C/C2=[N+](C)c3ccccc3C2(C)C)c(C)c1")
"5.3 µM"
>>> data_value("CC(C)C(N)C(=O)NC(CCC(=O)NCCCCC(N)C(=O)NCCCNc1ccc([N+](=O)[O-])c2[nH]c3ccccc3c(=O)c12)C(N)=O (centres undefined)")
"> 100 µM"
>>> data_value("CCN(CC)CCO/N=C1\\CC[C@H]2[C@@H]3CCc4cc(OC)ccc4[C@H]3CC[C@]12C")
"15.9 µM"
>>> data_value("COc1ccc(C(=O)c2nc3ccccc3n2CC(=O)c2ccc(Cl)cc2)cc1")
"> 100 µM"
>>> data_value("CC#CC(O)(C(=O)OC1CC(C)N(C)C(C)(C)C1)C1CCCC1 (centres undefined)")
"> 100 µM"

State recorded TGI for all listed molecules.
1. Nc1nc(Nc2ccccc2)sc1C(=O)c1ccco1
2. COc1ccc(-c2cnoc2-c2cc(OC)c3c(c2)OCCO3)cc1
3. CC(=Nc1ccc(S(N)(=O)=O)cc1)c1c(O)[nH]c2ccccc12
4. O=S1(=O)C[C@@H](NCc2ccccc2)[C@H](NCc2ccccc2)C1

result:
1: 35.9 µM; 2: > 100 µM; 3: > 25 µM; 4: > 100 µM

State recorded TGI for all listed molecules.
1. O=C1/C(=C/c2ccc([N+](=O)[O-])cc2)COc2ccc(O)cc21
2. O=C(O)CN(CC(=O)O)C(C(=O)O)c1ccccc1 (centres undefined)
3. c1ccc([P+](CCCCCCCC[P+](c2ccccc2)(c2ccccc2)c2ccccc2)(c2ccccc2)c2ccccc2)cc1
4. CCOC(OC1=C(C#N)CCCC1)C(CC)[Se]c1ccccc1 (centres undefined)

result:
1. > 100 µM
2. > 100 µM
3. > 73.7 µM
4. > 100 µM

State recorded TGI for all listed molecules.
1. Cc1cccc(N=Nc2ccc(N=Nc3c(O)ccc4ccccc34)cc2C)c1
2. COc1ccc(F)c(F)c1C(=O)c1cnc(NC2CCN(S(C)(=O)=O)CC2)nc1N
3. O=C1c2ccccc2-c2c1c1c(NCCCO)nc3ccccc3c1n2Cc1ccccc1
4. CC(C)/C(Cl)=N/OC(=O)Nc1ccc(OC(F)(F)F)cc1
5. CCCCCCCCCCCC1CC(=O)NCCCN(C)CCCCN(C)CCCN1C (centres undefined)

result:
> 100 µM
> 20.3 µM
41.1 µM
29.3 µM
3.12 µM

query: Form field: reported TGI of CN(C)c1cccc2c1C(=O)C=CC21c2ccc(N(C)C)c3c(N(C)C)ccc(c23)C(c2ccccc2)C1c1ccccc1 (centres undefined)
result: 25.5 µM
